# test-description: Half life (2 to 8 hrs) in Sprague-Dawley rat at 10 mg/kg, po
# Type: ADME, organism-based
# Design: dose 10 mg/kg, route oral
# measurement-setup: in vivo
measured-parameter: half-life (h)

chemical-smiles: COc1ccc2c(O[C@@H]3C[C@H]4C(=O)N[C@]5(C(=O)NS(=O)(=O)C6(C)CC6)C[C@H]5/C=C\CCCCCC(=O)N4C3)cc(-c3nc(C(C)C)cs3)nc2c1Cl
measured-parameter: half-life
scale-unit: h
reported-result: 2.73

====

# test-description: Plasma concentration in Sprague-Dawley rat at 10 mg/kg, po after 1 hr
# Type: ADME, organism-based
# Set-up: dose 10 mg/kg, route oral
measured-parameter: concentration at 1 h (ng/mL)

chemical-smiles: COc1ccc2c(O[C@@H]3C[C@H]4C(=O)N[C@]5(C(=O)NS(=O)(=O)C6(C)CC6)C[C@H]5/C=C\CCCCCC(=O)N4C3)cc(-c3nc(C(C)C)cs3)nc2c1Cl
reported-result: 693

====

# maps each entry to its metabolized at 0.25 h, 5 µM
# test-description: Metabolic stability in human liver microsomess after 15 mins at 5 uM
# Format: ADME, Microsome
# measurement-setup: liver microsomes

molecule: COc1ccc2c(O[C@@H]3C[C@H]4C(=O)N[C@]5(C(=O)NS(=O)(=O)C6CC6)C[C@H]5/C=C\CCCCCCC(=O)N4C3)cc(-c3csc(NC(C)C)n3)nc2c1
metabolized at 0.25 h, 5 µM, %: 91.5

molecule: COc1ccc2c(O[C@@H]3C[C@H]4C(=O)N[C@]5(C(=O)NS(=O)(=O)C6CC6)C[C@H]5/C=C\CCCCCC(=O)N4C3)cc(-c3nc(C(C)C)cs3)nc2c1C
metabolized at 0.25 h, 5 µM, %: 50.2

molecule: COc1ccc2c(O[C@@H]3C[C@H]4C(=O)N[C@]5(C(=O)NS(=O)(=O)C6(C)CC6)C[C@H]5/C=C\CCCCCC(=O)N4C3)cc(-c3nc(C(C)C)cs3)nc2c1C
metabolized at 0.25 h, 5 µM, %: 28.8

molecule: COc1ccc2c(O[C@@H]3C[C@H]4C(=O)N[C@]5(C(=O)NS(=O)(=O)C6(C)CC6)C[C@H]5/C=C\CCCCCC(=O)N4C3)cc(-c3nc(C(C)C)cs3)nc2c1Cl
metabolized at 0.25 h, 5 µM, %: 42.6

molecule: COc1ccc2c(O[C@@H]3C[C@H]4C(=O)N[C@]5(C(=O)O)C[C@H]5/C=C\CCCCC[C@H](NC(=O)OC5CCCC5)C(=O)N4C3)cc(-c3csc(NC(C)C)n3)nc2c1 [CILUPREVIR]
metabolized at 0.25 h, 5 µM, %: 28.5

====

# test-description: AUC (0 to infinity) in Sprague-Dawley rat at 10 mg/kg, po
# Type: ADME, organism-based
# Design: time infinity, dose 10 mg/kg, route oral
# measurement-setup: plasma

chemical-smiles: COc1ccc2c(O[C@@H]3C[C@H]4C(=O)N[C@]5(C(=O)NS(=O)(=O)C6(C)CC6)C[C@H]5/C=C\CCCCCC(=O)N4C3)cc(-c3nc(C(C)C)cs3)nc2c1Cl
scale-unit: ng·h/mL
AUC(0-inf): 3610

====

# test-description: Plasma concentration in Sprague-Dawley rat at 10 mg/kg, po after 0.5 hrs
# Assay type: ADME, organism-based
# Parameters: dose 10 mg/kg, route oral

chemical-smiles: COc1ccc2c(O[C@@H]3C[C@H]4C(=O)N[C@]5(C(=O)NS(=O)(=O)C6(C)CC6)C[C@H]5/C=C\CCCCCC(=O)N4C3)cc(-c3nc(C(C)C)cs3)nc2c1Cl
concentration at 0.5 h / ng/mL: 698

These entries and their values trace back to ChEMBL document CHEMBL1141682.
